Activity against human GLP-1R (EC50 nM); cAMP, HTRF reference
molecular target: human glucagon-like peptide-1 receptor (GLP-1R) (human, UniProt P43220); assay: cell-based or functional assay
Numbered stars: 1 amine (or outer) side, 2 acyl side, 3 side chain; on linkers, the order of the positions; unused ones are H or OH. Square brackets hold non-standard residues; d marks the D form. Side chains are listed from the residue outwards. γGlu = O=C(O)[C@H](CCC(=O)[*:2])N[*:1]; AEEA = NCCOCCOCC(=O)O; Aib = CC(C)(N)C(=O)O
Lab book: enter the figure in nM, no units written.

As a guide, the following entries are already answered.
[
  {
    "BINDER": "H-Y[Aib]EGTFTSDYSIYLEK([AEEA-AEEA-γGlu-C20‑OH])IAAQEFINWLIAGGPSSGAPPPS-NH2 [compound 10# H-YAibEGTFTSDYSIYLEK(OEG-OEG-yGlu-C20-OH)IAAQEFINWLIAGGPSSGAPPPS-NH2]",
    "MEASUREMENT_UNITS": "nM",
    "OBSERVED_VALUE": 0.065
  },
  {
    "BINDER": "H-Y[Aib]EGTFTSDYSIYK([AEEA-AEEA-γGlu-C20‑OH])EKIAAQEFVNWLIAGGPSSGAPPPS-NH2 [compound 12# H-YAibEGTFTSDYSIYK(OEG-OEG-yGlu-C20-OH)EKIAAQEFVNWLIAGGPSSGAPPPS-NH2]",
    "MEASUREMENT_UNITS": "nM",
    "OBSERVED_VALUE": 0.03
  },
  {
    "BINDER": "H-Y[Aib]EGTFTSDYSIYK([AEEA-AEEA-γGlu-C20‑OH])EKIAAQEFINWLIAGGPSSGAPPPS-NH2 [compound 14# H-YAibEGTFTSDYSIYK(OEG-OEG-yGlu-C20-OH)EKIAAQEFINWLIAGGPSSGAPPPS-NH2]",
    "MEASUREMENT_UNITS": "nM",
    "OBSERVED_VALUE": 0.013
  },
  {
    "BINDER": "H-Y[Aib]EGTFTSDYSIYLEK([AEEA-AEEA-γGlu-C20‑OH])IAAQEFVNWLIAGGPSSGAPPPS-NH2 [compound 9# H-YAibEGTFTSDYSIYLEK(OEG-OEG-yGlu-C20-OH)IAAQEFVNWLIAGGPSSGAPPPS-NH2]",
    "MEASUREMENT_UNITS": "nM",
    "OBSERVED_VALUE": 0.049
  },
  {
    "BINDER": "H-Y[Aib]EGTFTSDYSIYK([AEEA-AEEA-γGlu-C20‑OH])EKIAAQEFINWLLAGGPSSGAPPPS-NH2 [compound 16# H-YAibEGTFTSDYSIYK(OEG-OEG-yGlu-C20-OH)EKIAAQEFINWLLAGGPSSGAPPPS-NH2]",
    "MEASUREMENT_UNITS": "nM",
    "OBSERVED_VALUE": 0.029
  }
]

So, H-Y[Aib]EGTFTSDYSIYK([AEEA-AEEA-γGlu-C20‑OH])ERIAAQEFVNWLLAGGPSSGAPPPS-NH2 [compound 17# H-YAibEGTFTSDYSIYK(OEG-OEG-yGlu-C20-OH)ERIAAQEFVNWLLAGGPSSGAPPPS-NH2] ? Its Activity against human GLP-1R (EC50 nM); cAMP, HTRF was 0.022

Sourced from patent US20250115654A1
